target_or_test_system: EGFR (human)
condition: a431
With a cut-off of 80 nM, any IC50 strictly below it is called Fulfilled; any IC50 meeting it or above is called Not fulfilled.

Lookup: Find out if reported IC50 for "C=CC(=O)N1CCC(Oc2cc3c(Nc4cccc(C(F)(F)F)c4F)ncnc3cc2OC)CC1" is less than 80 nM
Found: Fulfilled

Lookup: Find out if reported IC50 for "COc1cc2ncnc(Nc3ccc(F)c(Cl)c3F)c2cc1O[C@H]1CCN(C(=O)C#CCN(C)C)C1" is less than 80 nM
Found: Fulfilled

Lookup: Find out if reported IC50 for "COc1cc2ncnc(Nc3ccc(Cl)c(Cl)c3F)c2cc1OC1CCN(C(=O)/C=C/C(=O)O)CC1" is less than 80 nM
Found: Not fulfilled

Lookup: Find out if reported IC50 for "COc1cc2ncnc(Nc3ccc(F)c(Cl)c3F)c2cc1O[C@H]1CCN(C(=O)/C=C/CN2CCOCC2)C1" is less than 80 nM
Found: Not fulfilled

Lookup: Find out if reported IC50 for "COC(=O)/C=C\C(=O)N1CCC(Oc2cc3c(Nc4ccc(Cl)c(Cl)c4F)ncnc3cc2OC)CC1" is less than 80 nM
Found: Fulfilled

Lookup: Find out if reported IC50 for "C=CC(=O)N1CCC(Oc2cc3c(N[C@H](C)c4ccccc4)ncnc3cc2OC)CC1" is less than 80 nM
Found: Not fulfilled

Lookup: Find out if reported IC50 for "COc1cc2ncnc(Nc3ccc(F)c(Cl)c3F)c2cc1O[C@H]1CCN(C(=O)C#CCCN2CCN(C)CC2)C1" is less than 80 nM
Found: Fulfilled

Lookup: Find out if reported IC50 for "C=CC(=O)N1CCC(Oc2cc3c(Nc4ccc(F)c(F)c4F)ncnc3cc2OC)CC1" is less than 80 nM
Found: Fulfilled

Lookup: Find out if reported IC50 for "C=CC(=O)N1CCC(Oc2cc3c(Nc4ccc(Br)c(F)c4)ncnc3cc2OC)CC1" is less than 80 nM
Found: Fulfilled
